Give self-cleavage for every item shown.
B1: Hairpin Ribozyme (parent)
chain: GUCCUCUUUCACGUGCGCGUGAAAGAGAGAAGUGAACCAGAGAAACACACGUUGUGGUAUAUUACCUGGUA

Variants of: B1
assayRemarks: self-cleavage, relative activity (ratio to wild type); higher = more cleavage; co-transcriptional
Give bare numbers.

| mutant | self-cleavage |
| --- | --- |
| C10G G40U | 0.161 |
| G15A G25A | 0.576 |
| G29A U53G | 0.0705 |
| G29C G54U | 0.162 |
| A43C C66G | 0.0604 |

Need self-cleavage for each of these variants.
1. G29U G57A
2. C38A U62A
3. U55G A71G
4. G1U C50A

Completion:
1. 0.172
2. 0.218
3. 0.241
4. 0.189

State recorded self-cleavage for all listed variants.
1. A41U A47U
2. C50U G69A

Completion:
0.207
0.112
